assay: in vivo; details: female, Göttingen, minipig, in vivo, iv, 5 nmol/kg
Where no end group is shown, it is not given here.
Measure Name: Vd (L/kg)
Numbers only, in L/kg.

{"Substance": "HGEGTFTSDVSSYLEGEAVKEFIAWLVEKVKEFL-NH2 [Compound 76]", "Readout Unit": "L/kg", "Vd": 0.0636}

[Q] I would be grateful if you could share the reported Vd for HGEGTFTSDVSSYLEGEAVKEFIAWLVEKVKEHL-NH2 [Compound 78] .
[A] 0.134
